experiment: soluble on expression in E. coli; label from the status in PepcDB or PDB records
result.type: soluble on expression in E. coli

SKFLDVECLSELQRKLNDLELTDYRVRCQLEAYSCKPAGFDKKLSKSLEQKLVEQLEASPRVLEGSPVGSLEDQSARKTLINLICTLNAAHQDYDFSSLQLSRLKRVQDVRSLQQHVDSLFELFYRQLGLEFRQFLWENIGQIIRPEECEVYSYLPDYESDPYSASGALWSFCYFFYHKNMKKILFFSCTLSTRLAEDSESTESVDEEDFGKESSGLETPFAMFETVI: soluble
MDREALLQAVKEARELAKPRNFTQSFEFIATLKEIDMRKPENRIKTEVVLPHGRGKEAKIAVIGTGDLAKQAEELGLTVIRKEEIEELGKNKRKLRKIAKAHDFFIAQADLMPLIGRYMGVILGPRGKMPKPVPANANIKPLVERLKKTVVINTRDKPYFQVLVGNEKMTDEQIVDNIEAVLNVVAKKYEKGLYHIKDAYVKLTMGPAVKVKKEKAKKK: soluble

The reported numbers originate from the DeepSol protein solubility set.
